Origin of the recorded values: ChEMBL document CHEMBL1142752

Property: pKi; scope: individual compounds
target: Human immunodeficiency virus type 1 protease (Human immunodeficiency virus 1, UniProt Q72874)
Note: pKi values are expressed as the negative base-10 logarithm of concentration in M.

Nc1cccc(S(=O)(=O)N(C[C@@H](O)[C@H](Cc2ccccc2)NC(=O)O[C@H]2CO[C@H]3OCC[C@H]32)OC2CCCCC2)c1    11.30
COC(=O)N[C@H](C(=O)N[C@@H](Cc1ccccc1)[C@H](O)CN(OC1CCCC1)S(=O)(=O)c1ccc(OC)cc1)C(C)(C)C    10.05
COc1ccc(S(=O)(=O)N(C[C@@H](O)[C@H](Cc2ccccc2)NC(=O)OC2CCOC2)OC2CCCC2)cc1 (some centres not stated)    9.72
COc1ccc(S(=O)(=O)N(C[C@@H](O)[C@H](Cc2ccccc2)NC(=O)OC(C)(C)C)OC(C)C)cc1    7.85

Okay, next one:
Recall and state the measured pKi for COc1ccc(S(=O)(=O)N(C[C@@H](O)[C@H](Cc2ccccc2)NC(=O)OC(C)(C)C)OC2CCCCC2)cc1 .
8.55
